conditions: 288.15 K; 50000 kPa; Liquid; Vibrating tube method
Parameter: mass density (kg/m3)
Number only, in kg/m3; omit the unit.

mass density for CC(C)C(C)C ?
707.56

Field entry: CCCC(C)C
699.4

Field entry: CCC(C)CC
708.77

Field entry: CCC(C)(C)C
697.81

====

conditions: 293.15 K; 5000 kPa; Liquid; Vibrating tube method
Parameter: mass density (kg/m3)
Number only, in kg/m3; omit the unit.

mass density for CCCC(C)C [2-methylpentane] ?
658.76

Field entry: CC(C)C(C)C [2,3-dimethylbutane]
667.04

Field entry: CCC(C)(C)C [2,2-dimethylbutane]
655.12

Field entry: CCC(C)CC [3-methylpentane]
669.49

====

conditions: 283.15 K; 7000 kPa; Liquid; Vibrating tube method
Consider the following compounds; for each one, report its mass density.
Number only, in kg/m3; omit the unit.

mass density for CCCC(C)C [2-methylpentane] ?
669.44

Field entry: CCC(C)(C)C [2,2-dimethylbutane]
666.19

Field entry: CCC(C)CC [3-methylpentane]
680.08

Field entry: CC(C)C(C)C [2,3-dimethylbutane]
677.77

====

Consider the following compounds; for each one, report its mass density.
conditions: 318.15 K; 2000 kPa; Liquid; Vibrating tube method
Numbers after ± are expanded uncertainties.
# answer = value followed by unit

mass density for CCCC(C)C [2-methylpentane] ?
632.32 ± 0.33 kg/m3

Field entry: CCC(C)CC [3-methylpentane]
643.46 ± 0.32 kg/m3

Field entry: CC(C)C(C)C [2,3-dimethylbutane]
640.8 ± 0.32 kg/m3

Field entry: CCC(C)(C)C [2,2-dimethylbutane]
627.98 ± 0.33 kg/m3

====

settings: 328.15 K; 40000 kPa; Liquid; Vibrating tube method
± gives the expanded uncertainty stated by the source.
Consider the following compounds; for each one, report its mass density.
# answer = value followed by unit

mass density for CCC(C)CC [3-methylpentane] ?
674.39 ± 0.75 kg/m3

Field entry: CC(C)C(C)C [2,3-dimethylbutane]
672.8 ± 0.75 kg/m3

Field entry: CCC(C)(C)C [2,2-dimethylbutane]
662.51 ± 0.77 kg/m3

Field entry: CCCC(C)C [2-methylpentane]
664.47 ± 0.77 kg/m3

====

Consider the following compounds; for each one, report its mass density.
details: 313.15 K; 30000 kPa; Liquid; Vibrating tube method
Number only, in kg/m3; omit the unit.

mass density for CC(C)C(C)C ?
674.74

Field entry: CCC(C)CC
676.56

Field entry: CCC(C)(C)C
664.53

Field entry: CCCC(C)C
666.76

====

conditions: 283.15 K; 5000 kPa; Liquid; Vibrating tube method
Parameter: mass density (kg/m3)
Number only, in kg/m3; omit the unit.

mass density for CCC(C)(C)C [2,2-dimethylbutane] ?
664.07

Field entry: CCCC(C)C [2-methylpentane]
667.45

Field entry: CC(C)C(C)C [2,3-dimethylbutane]
675.8

Field entry: CCC(C)CC [3-methylpentane]
678.2

====

conditions: 298.15 K; 50000 kPa; Liquid; Vibrating tube method
Parameter: mass density (kg/m3)
Number only, in kg/m3; omit the unit.

mass density for CCC(C)CC [3-methylpentane] ?
702.25

Field entry: CC(C)C(C)C [2,3-dimethylbutane]
700.78

Field entry: CCC(C)(C)C [2,2-dimethylbutane]
691.09

Field entry: CCCC(C)C [2-methylpentane]
692.66
